- Study Target: N-terminally truncated (Δ 27) Abl kinase (Homo sapiens, UniProt P00519)
- Sequence (P00519 whole entry, stated change not applied, the tested form may be a part): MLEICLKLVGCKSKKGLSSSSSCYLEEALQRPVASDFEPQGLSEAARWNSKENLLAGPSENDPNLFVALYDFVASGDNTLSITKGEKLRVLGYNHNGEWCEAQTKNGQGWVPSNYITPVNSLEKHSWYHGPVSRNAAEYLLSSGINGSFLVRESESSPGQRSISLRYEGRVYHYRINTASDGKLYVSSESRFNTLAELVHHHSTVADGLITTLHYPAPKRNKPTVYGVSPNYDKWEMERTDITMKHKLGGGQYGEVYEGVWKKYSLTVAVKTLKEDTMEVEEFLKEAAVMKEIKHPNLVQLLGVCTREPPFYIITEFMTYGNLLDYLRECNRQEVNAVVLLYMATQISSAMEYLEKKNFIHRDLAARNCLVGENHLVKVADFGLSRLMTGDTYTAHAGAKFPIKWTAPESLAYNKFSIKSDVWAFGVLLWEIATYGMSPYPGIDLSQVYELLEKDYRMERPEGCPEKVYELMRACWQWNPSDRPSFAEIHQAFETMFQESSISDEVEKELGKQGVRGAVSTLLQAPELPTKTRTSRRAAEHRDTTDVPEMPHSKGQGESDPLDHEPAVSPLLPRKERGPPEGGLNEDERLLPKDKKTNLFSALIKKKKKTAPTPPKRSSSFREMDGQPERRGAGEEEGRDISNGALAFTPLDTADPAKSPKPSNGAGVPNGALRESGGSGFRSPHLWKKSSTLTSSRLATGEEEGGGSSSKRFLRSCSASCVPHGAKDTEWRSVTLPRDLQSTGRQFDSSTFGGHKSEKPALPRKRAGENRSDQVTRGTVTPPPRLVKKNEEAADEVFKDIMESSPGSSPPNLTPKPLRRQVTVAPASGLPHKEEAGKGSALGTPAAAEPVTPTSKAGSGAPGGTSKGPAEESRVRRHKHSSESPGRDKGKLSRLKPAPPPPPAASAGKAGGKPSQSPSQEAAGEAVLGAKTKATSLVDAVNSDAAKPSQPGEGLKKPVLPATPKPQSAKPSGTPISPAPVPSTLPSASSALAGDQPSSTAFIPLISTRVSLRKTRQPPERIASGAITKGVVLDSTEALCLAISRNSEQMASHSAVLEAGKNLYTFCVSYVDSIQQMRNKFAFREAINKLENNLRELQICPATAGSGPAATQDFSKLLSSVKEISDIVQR
- Assay Notes: Abl Kinase Activity Inhibition Assay, coupled enzyme system
- Condition Context: 110 μM ATP, 30° C.
Readout: Ki

These recorded examples may help you get a feel for the data.
Compound	Test Result
Cc1cc(Nc2cc(N3CCC(N4CCC(F)C4)CC3)nc(Sc3ccc(NC(=O)CC(F)(F)F)cc3)n2)[nH]n1 (stereo not drawn) [Compound I-63]	25 to 100 nM
CCC(=O)Nc1ccc(Sc2nc(Nc3cc(C)n[nH]3)cc(N3CCC4(CCN(C)C4)CC3)n2)cc1 [Compound I-53]	< 25 nM

// Ki (N-terminally truncated (Δ 27) Abl kinase (Homo sapiens, UniProt P00519)) for CCC(=O)Nc1ccc(Sc2nc(Nc3cc(C)n[nH]3)cc(N3CC[C@@H](N(C)C)C3)n2)cc1 [Compound I-24] = < 25 nM

---

- Study Target: N-terminally truncated (Δ 27) Abl kinase (Homo sapiens)
- Assay Notes: Abl Kinase Activity Inhibition Assay, coupled enzyme system
- Condition Context: 110 μM ATP, 30° C.
# maps each entry to its Ki

These recorded examples may help you get a feel for the data.
Compound	Ki
CCC(=O)Nc1ccc(Sc2nc(Nc3cc(C)n[nH]3)cc(N3CCC(NC(C)(C)C)CC3)n2)cc1	0.025 to 0.1 µM
CCC(=O)Nc1ccc(Sc2nc(Nc3cc(C)[nH]n3)cc(N3CC[C@H](N(C)C)C3)n2)cc1	< 0.025 µM
CCC(=O)Nc1ccc(Sc2nc(Nc3cc(C)n[nH]3)cc(N3CCC(C(C)(C)O)CC3)n2)cc1	0.025 to 0.1 µM
CCC(=O)Nc1ccc(Sc2nc(Nc3cc(C)n[nH]3)cc(N3CCC(F)C3)n2)cc1 (centres unmarked)	< 0.025 µM

Ki measured on Cc1cnc(Nc2cc(N3CC[C@@H](N(C)C)C3)nc(Sc3ccc(NC(=O)C4CC4)cc3)n2)s1 = < 0.025 µM

Ki measured on CCC(=O)Nc1ccc(Sc2nc(Nc3cc(C)n[nH]3)cc(N3CCC(N4[C@H](C)CC[C@H]4C)CC3)n2)cc1 = < 0.025 µM

---

- System: Colo205 cells
- Assay Notes: Analysis of Cell Proliferation, 3H thymidine incorporation
- Format: cell-based
- Condition Context: Homo sapiens, COLO 205, 96 h, 96 hours, read-out: IC50 cell proliferation after 96 hours
pIC50: −log10 of the molar value.
# maps each entry to its pIC50

Compound	pIC50
CCC(=O)Nc1ccc(Sc2nc(Nc3cc(C)n[nH]3)cc(N3CC[C@H](N4CCCC4)C3)n2)cc1	≥ 7.30
CCC(=O)Nc1ccc(Sc2nc(Nc3cc(C)n[nH]3)cc(N3CCC(N4CCC(F)C4)CC3)n2)cc1 (centres unmarked)	≥ 7.30
CN[C@H]1CCCN(c2cc(Nc3ncc(C)s3)nc(Sc3ccc(NC(=O)C4CC4)cc3)n2)C1	6.70 to 7.30

pIC50 measured on CCC(=O)Nc1ccc(Sc2nc(Nc3cc(C)n[nH]3)cc(N3CCC(O)(CC)CC3)n2)cc1 = ≥ 7.30

pIC50 measured on CCC(=O)Nc1ccc(Sc2nc(Nc3cc(C)n[nH]3)cc(N3CCC(C(C)(C)OC)CC3)n2)cc1 = ≥ 7.30

pIC50 measured on CCC(=O)Nc1ccc(Sc2nc(Nc3cc(C)n[nH]3)cc(N3CCC(C(C)(C)C)CC3)n2)cc1 = 6.70 to 7.30

pIC50 measured on CCC(=O)Nc1ccc(Sc2nc(Nc3cc(C)[nH]n3)cc(N3CCC(=O)CC3)n2)cc1 = 6.70 to 7.30

pIC50 measured on CCC(=O)Nc1ccc(Sc2nc(Nc3cc(C)n[nH]3)cc(N3CCC(O)(C(C)C)CC3)n2)cc1 = ≥ 7.30

pIC50 measured on CCC(=O)Nc1ccc(Sc2nc(Nc3cc(C)n[nH]3)cc(N3CCC(C)(O)C3)n2)cc1 (centres unmarked) = 6.70 to 7.30

pIC50 measured on CCN[C@H]1CCN(c2cc(Nc3cc(C)n[nH]3)nc(Sc3ccc(NC(=O)CC)cc3)n2)C1 = ≥ 7.30

pIC50 measured on CCC(=O)Nc1ccc(Sc2nc(Nc3cc(C4CC4)n[nH]3)cc(N3CCC(F)C3)n2)cc1 (centres unmarked) = 6.70 to 7.30
